Value source: patent USRE31731E

# Tested on: Dicots
# ASSAY TEXT: Herbicidal activity, postemergence, dicot weeds (Table II)
# Format: in vivo
# APPLIED CONDITIONS: post-emergence, 336 h, 2 lb./A., about 2 weeks, read-out: % control (percent of plants killed)
MEASUREMENT TYPE: pest or weed control at 2241.7 g/ha (%)
Enter your answer as a number in %; do not include the unit.

Problem: What does the data say about its pest or weed control at 2241.7 g/ha? Entry: CCN(CC)c1cc(Oc2ccc(C(F)(F)F)cc2Cl)ccc1[N+](=O)[O-] [Example 21]
Solution: 94

Problem: What does the data say about its pest or weed control at 2241.7 g/ha? Entry: CCOc1cc(Oc2ccc(C(F)(F)F)cc2C#N)ccc1[N+](=O)[O-] [Example 7]
Solution: 80

Problem: What does the data say about its pest or weed control at 2241.7 g/ha? Entry: CCC(=O)Nc1cc(Oc2ccc(C(F)(F)F)cc2Cl)ccc1[N+](=O)[O-] [Example 34]
Solution: 90

Problem: What does the data say about its pest or weed control at 2241.7 g/ha? Entry: CCSC(=O)N(C(=O)SCC)c1cc(Oc2ccc(C(F)(F)F)cc2Cl)ccc1[N+](=O)[O-] [Example 46]
Solution: 4

Problem: What does the data say about its pest or weed control at 2241.7 g/ha? Entry: CNC(=O)Oc1cc(Oc2ccc(C(F)(F)F)cc2Cl)ccc1[N+](=O)[O-] [Example 33]
Solution: 100

Problem: What does the data say about its pest or weed control at 2241.7 g/ha? Entry: CCCOc1cc(Oc2ccc(C(F)(F)F)cc2C#N)ccc1[N+](=O)[O-] [Example 8]
Solution: 66

Problem: What does the data say about its pest or weed control at 2241.7 g/ha? Entry: O=C(CCl)Nc1cc(Oc2ccc(C(F)(F)F)cc2Cl)ccc1[N+](=O)[O-] [Example 35]
Solution: 80

Problem: What does the data say about its pest or weed control at 2241.7 g/ha? Entry: CNC(=O)C(C)Oc1cc(Oc2ccc(C(F)(F)F)cc2Cl)ccc1[N+](=O)[O-] (stereo not shown) [Example 52]
Solution: 100

Problem: What does the data say about its pest or weed control at 2241.7 g/ha? Entry: CCOC(=O)COc1cc(Oc2ccc(C(F)(F)F)cc2Cl)ccc1[N+](=O)[O-] [Example 24]
Solution: 100

Problem: What does the data say about its pest or weed control at 2241.7 g/ha? Entry: C#CCOc1cc(Oc2ccc(C(F)(F)F)cc2Cl)ccc1[N+](=O)[O-] [Example 13]
Solution: 100

Problem: What does the data say about its pest or weed control at 2241.7 g/ha? Entry: C=CCOc1cc(Oc2ccc(C(F)(F)F)cc2Cl)ccc1[N+](=O)[O-] [Example 12]
Solution: 100

Problem: What does the data say about its pest or weed control at 2241.7 g/ha? Entry: CN(CCO)c1cc(Oc2ccc(C(F)(F)F)cc2Cl)ccc1[N+](=O)[O-] [Example 43]
Solution: 80

Problem: What does the data say about its pest or weed control at 2241.7 g/ha? Entry: CCCN(CCC)c1cc(Oc2ccc(C(F)(F)F)cc2Cl)ccc1[N+](=O)[O-] [Example 41]
Solution: 94

* * *

Could you please report measured pest or weed control at 2241.7 g/ha for the items listed next?
# System: Dicots
# ASSAY TEXT: Herbicidal activity, postemergence, dicot weeds (Table II)
# Format: in vivo
# APPLIED CONDITIONS: post-emergence, 336 h, 2 lb./A., about 2 weeks, read-out: % control (percent of plants killed)

Problem: What does the data say about its pest or weed control at 2241.7 g/ha? Entry: COC(=O)c1cc(Oc2ccc(C(F)(F)F)cc2Cl)ccc1[N+](=O)[O-]
Solution: 100%

Problem: What does the data say about its pest or weed control at 2241.7 g/ha? Entry: CCSC(=O)Nc1cc(Oc2ccc(C(F)(F)F)cc2Cl)ccc1[N+](=O)[O-]
Solution: 78%

Problem: What does the data say about its pest or weed control at 2241.7 g/ha? Entry: CCOc1cc(Oc2c(Cl)cc(C(F)(F)F)cc2Cl)ccc1[N+](=O)[O-]
Solution: 99%

Problem: What does the data say about its pest or weed control at 2241.7 g/ha? Entry: CC(Oc1cc(Oc2ccc(C(F)(F)F)cc2Cl)ccc1[N+](=O)[O-])C(=O)O (centres unmarked)
Solution: 100%

Problem: What does the data say about its pest or weed control at 2241.7 g/ha? Entry: O=[N+]([O-])c1ccc(Oc2ccc(C(F)(F)F)cc2Cl)cc1N1CCOCC1
Solution: 100%

Problem: What does the data say about its pest or weed control at 2241.7 g/ha? Entry: CC#CCCOc1cc(Oc2ccc(C(F)(F)F)cc2Cl)ccc1[N+](=O)[O-]
Solution: 100%

Problem: What does the data say about its pest or weed control at 2241.7 g/ha? Entry: COC(=O)C(C)Oc1cc(Oc2ccc(C(F)(F)F)cc2Cl)ccc1[N+](=O)[O-] (centres unmarked)
Solution: 100%

Problem: What does the data say about its pest or weed control at 2241.7 g/ha? Entry: Cc1cc(Oc2ccc(C(F)(F)F)cc2C#N)ccc1[N+](=O)[O-]
Solution: 75%

* * *

# System: Dicots
# ASSAY TEXT: Herbicidal activity, postemergence, dicot weeds (Table II)
# Type: in vivo
# APPLIED CONDITIONS: post-emergence, 336 h, 4 lb./A., about 2 weeks, read-out: % control (percent of plants killed)
Could you please report measured pest or weed control at 4483.4 g/ha for the items listed next?
Enter your answer as a number in %; do not include the unit.

Problem: What does the data say about its pest or weed control at 4483.4 g/ha? Entry: CNC(=O)Nc1cc(Oc2ccc(C(F)(F)F)cc2Cl)ccc1[N+](=O)[O-]
Solution: 98

Problem: What does the data say about its pest or weed control at 4483.4 g/ha? Entry: CCOc1cc(Oc2ccc(C(F)(F)F)cc2)ccc1[N+](=O)[O-]
Solution: 58

Problem: What does the data say about its pest or weed control at 4483.4 g/ha? Entry: CCOC(=O)C(C)Oc1cc(Oc2ccc(C(F)(F)F)cc2Cl)ccc1[N+](=O)[O-] (stereo not shown)
Solution: 100

Problem: What does the data say about its pest or weed control at 4483.4 g/ha? Entry: CCOCCOc1cc(Oc2ccc(C(F)(F)F)cc2Cl)ccc1[N+](=O)[O-]
Solution: 96

Problem: What does the data say about its pest or weed control at 4483.4 g/ha? Entry: COC(=O)c1cc(Oc2ccc(C(F)(F)F)cc2Cl)ccc1[N+](=O)[O-]
Solution: 100

Problem: What does the data say about its pest or weed control at 4483.4 g/ha? Entry: CSCCOc1cc(Oc2ccc(C(F)(F)F)cc2Cl)ccc1[N+](=O)[O-]
Solution: 100

Problem: What does the data say about its pest or weed control at 4483.4 g/ha? Entry: CNC(=O)Oc1cc(Oc2ccc(C(F)(F)F)cc2Cl)ccc1[N+](=O)[O-]
Solution: 98

* * *

# Tested on: Dicots
# ASSAY TEXT: Herbicidal activity, preemergence, dicot weeds (Table II)
# Type: in vivo
# APPLIED CONDITIONS: pre-emergence, 336 h, 4 lb./A., about 2 weeks, read-out: % control (percent of plants killed)
MEASUREMENT TYPE: pest or weed control at 4483.4 g/ha (%)
Enter your answer as a number in %; do not include the unit.

Problem: What does the data say about its pest or weed control at 4483.4 g/ha? Entry: CSCCOc1cc(Oc2ccc(C(F)(F)F)cc2Cl)ccc1[N+](=O)[O-]
Solution: 92

Problem: What does the data say about its pest or weed control at 4483.4 g/ha? Entry: CCOC(=O)COc1cc(Oc2ccc(C(F)(F)F)cc2Cl)ccc1[N+](=O)[O-]
Solution: 68

Problem: What does the data say about its pest or weed control at 4483.4 g/ha? Entry: O=[N+]([O-])c1ccc(Oc2ccc(C(F)(F)F)cc2Cl)cc1NCCO
Solution: 98

Problem: What does the data say about its pest or weed control at 4483.4 g/ha? Entry: CC(Oc1cc(Oc2ccc(C(F)(F)F)cc2Cl)ccc1[N+](=O)[O-])C(=O)O (centres unmarked)
Solution: 88

Problem: What does the data say about its pest or weed control at 4483.4 g/ha? Entry: O=[N+]([O-])c1ccc(Oc2ccc(C(F)(F)F)cc2Cl)cc1OCC1CO1 (centres unmarked)
Solution: 86

Problem: What does the data say about its pest or weed control at 4483.4 g/ha? Entry: CCOc1cc(Oc2ccc(C(F)(F)F)cc2C#N)ccc1[N+](=O)[O-]
Solution: 57

Problem: What does the data say about its pest or weed control at 4483.4 g/ha? Entry: CS(=O)(=O)CCOc1cc(Oc2ccc(C(F)(F)F)cc2Cl)ccc1[N+](=O)[O-]
Solution: 80

Problem: What does the data say about its pest or weed control at 4483.4 g/ha? Entry: CCOc1cc(Oc2ccc(C(F)(F)F)cc2Cl)ccc1[N+](=O)[O-]
Solution: 99

Problem: What does the data say about its pest or weed control at 4483.4 g/ha? Entry: COC(=O)C(C)Oc1cc(Oc2ccc(C(F)(F)F)cc2Cl)ccc1[N+](=O)[O-] (centres unmarked)
Solution: 83

Problem: What does the data say about its pest or weed control at 4483.4 g/ha? Entry: CC(Oc1cc(Oc2ccc(C(F)(F)F)cc2Cl)ccc1[N+](=O)[O-])C(=O)N(C)C (centres unmarked)
Solution: 83

Problem: What does the data say about its pest or weed control at 4483.4 g/ha? Entry: Cc1cc(Oc2ccc(C(F)(F)F)cc2C#N)ccc1[N+](=O)[O-]
Solution: 66

Problem: What does the data say about its pest or weed control at 4483.4 g/ha? Entry: CCCOc1cc(Oc2ccc(C(F)(F)F)cc2C#N)ccc1[N+](=O)[O-]
Solution: 57

Problem: What does the data say about its pest or weed control at 4483.4 g/ha? Entry: CN(CCO)c1cc(Oc2ccc(C(F)(F)F)cc2Cl)ccc1[N+](=O)[O-]
Solution: 48

Problem: What does the data say about its pest or weed control at 4483.4 g/ha? Entry: CC(=O)CCOc1cc(Oc2ccc(C(F)(F)F)cc2Cl)ccc1[N+](=O)[O-]
Solution: 99

Problem: What does the data say about its pest or weed control at 4483.4 g/ha? Entry: CCOCCOc1cc(Oc2ccc(C(F)(F)F)cc2Cl)ccc1[N+](=O)[O-]
Solution: 94

Problem: What does the data say about its pest or weed control at 4483.4 g/ha? Entry: CCCOc1cc(Oc2ccc(C(F)(F)F)cc2Cl)ccc1[N+](=O)[O-]
Solution: 78

Problem: What does the data say about its pest or weed control at 4483.4 g/ha? Entry: CCCCOc1cc(Oc2ccc(C(F)(F)F)cc2Cl)ccc1[N+](=O)[O-]
Solution: 55

Problem: What does the data say about its pest or weed control at 4483.4 g/ha? Entry: O=[N+]([O-])c1ccc(Oc2ccc(C(F)(F)F)cc2Cl)cc1N1CCOCC1
Solution: 95

Problem: What does the data say about its pest or weed control at 4483.4 g/ha? Entry: CCN(CCO)c1cc(Oc2ccc(C(F)(F)F)cc2Cl)ccc1[N+](=O)[O-]
Solution: 75

Problem: What does the data say about its pest or weed control at 4483.4 g/ha? Entry: CCCN(CCC)c1cc(Oc2ccc(C(F)(F)F)cc2Cl)ccc1[N+](=O)[O-]
Solution: 96

Problem: What does the data say about its pest or weed control at 4483.4 g/ha? Entry: CCC(=O)Nc1cc(Oc2ccc(C(F)(F)F)cc2Cl)ccc1[N+](=O)[O-]
Solution: 52

Problem: What does the data say about its pest or weed control at 4483.4 g/ha? Entry: C#CCOc1cc(Oc2ccc(C(F)(F)F)cc2Cl)ccc1[N+](=O)[O-]
Solution: 90

Problem: What does the data say about its pest or weed control at 4483.4 g/ha? Entry: C#CC(C)Oc1cc(Oc2ccc(C(F)(F)F)cc2Cl)ccc1[N+](=O)[O-] (centres unmarked)
Solution: 99

Problem: What does the data say about its pest or weed control at 4483.4 g/ha? Entry: CNC(=O)Oc1cc(Oc2ccc(C(F)(F)F)cc2Cl)ccc1[N+](=O)[O-]
Solution: 99

Problem: What does the data say about its pest or weed control at 4483.4 g/ha? Entry: CCSC(=O)Nc1cc(Oc2ccc(C(F)(F)F)cc2Cl)ccc1[N+](=O)[O-]
Solution: 58

Problem: What does the data say about its pest or weed control at 4483.4 g/ha? Entry: CCNc1cc(Oc2ccc(C(F)(F)F)cc2Cl)ccc1[N+](=O)[O-]
Solution: 96
